biological target: PI3K-p110β (Homo sapiens); test: Biochemical PI3K-p110β inhibition; settings: isoform panel, second part of table; read-out: IC50 PI3K-p110β
PROPERTY: IC50 (µM)
State just the number; it will be interpreted in µM.

# input compound: c1cc(-c2cc3ncccc3c(N3CCOCC3)n2)c2cc[nH]c2c1 [G] ; wanted: its IC50 3.4

---

Readings of IC50 for the listed molecules
target: PI3K-p110β (Homo sapiens, UniProt P42338); assay: Biochemical PI3K-p110β inhibition; details: read-out: Biochemical IC50, PI3K-p110β
Sequence (P42338 whole entry, canonical isoform): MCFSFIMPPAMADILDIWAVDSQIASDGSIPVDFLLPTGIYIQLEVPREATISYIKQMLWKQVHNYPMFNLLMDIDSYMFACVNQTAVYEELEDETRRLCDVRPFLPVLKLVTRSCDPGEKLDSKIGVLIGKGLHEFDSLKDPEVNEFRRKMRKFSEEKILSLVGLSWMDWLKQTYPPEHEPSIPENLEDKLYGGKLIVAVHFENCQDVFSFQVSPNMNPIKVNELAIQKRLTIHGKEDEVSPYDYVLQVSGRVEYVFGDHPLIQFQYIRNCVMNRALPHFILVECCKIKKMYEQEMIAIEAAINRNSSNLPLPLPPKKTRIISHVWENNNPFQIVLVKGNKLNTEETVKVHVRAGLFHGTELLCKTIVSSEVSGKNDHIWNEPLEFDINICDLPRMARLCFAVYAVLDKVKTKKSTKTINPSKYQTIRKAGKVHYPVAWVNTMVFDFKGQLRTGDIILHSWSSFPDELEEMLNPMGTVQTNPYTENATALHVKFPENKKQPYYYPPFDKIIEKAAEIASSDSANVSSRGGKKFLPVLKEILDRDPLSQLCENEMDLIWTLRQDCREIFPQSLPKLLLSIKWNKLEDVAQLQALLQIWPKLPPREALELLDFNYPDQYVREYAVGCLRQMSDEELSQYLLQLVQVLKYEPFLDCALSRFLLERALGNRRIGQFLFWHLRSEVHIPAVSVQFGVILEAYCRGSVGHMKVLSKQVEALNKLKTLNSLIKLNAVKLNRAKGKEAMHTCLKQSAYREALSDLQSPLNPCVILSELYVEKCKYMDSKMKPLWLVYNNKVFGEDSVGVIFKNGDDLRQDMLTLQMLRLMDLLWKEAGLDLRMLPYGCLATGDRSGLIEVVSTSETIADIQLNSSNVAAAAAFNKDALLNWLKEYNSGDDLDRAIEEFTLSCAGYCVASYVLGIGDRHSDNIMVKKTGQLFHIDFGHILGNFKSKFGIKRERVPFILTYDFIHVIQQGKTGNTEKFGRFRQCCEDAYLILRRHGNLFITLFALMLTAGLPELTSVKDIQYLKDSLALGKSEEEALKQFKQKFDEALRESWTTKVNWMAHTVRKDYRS
Sequence (P27986 whole entry partner, canonical isoform): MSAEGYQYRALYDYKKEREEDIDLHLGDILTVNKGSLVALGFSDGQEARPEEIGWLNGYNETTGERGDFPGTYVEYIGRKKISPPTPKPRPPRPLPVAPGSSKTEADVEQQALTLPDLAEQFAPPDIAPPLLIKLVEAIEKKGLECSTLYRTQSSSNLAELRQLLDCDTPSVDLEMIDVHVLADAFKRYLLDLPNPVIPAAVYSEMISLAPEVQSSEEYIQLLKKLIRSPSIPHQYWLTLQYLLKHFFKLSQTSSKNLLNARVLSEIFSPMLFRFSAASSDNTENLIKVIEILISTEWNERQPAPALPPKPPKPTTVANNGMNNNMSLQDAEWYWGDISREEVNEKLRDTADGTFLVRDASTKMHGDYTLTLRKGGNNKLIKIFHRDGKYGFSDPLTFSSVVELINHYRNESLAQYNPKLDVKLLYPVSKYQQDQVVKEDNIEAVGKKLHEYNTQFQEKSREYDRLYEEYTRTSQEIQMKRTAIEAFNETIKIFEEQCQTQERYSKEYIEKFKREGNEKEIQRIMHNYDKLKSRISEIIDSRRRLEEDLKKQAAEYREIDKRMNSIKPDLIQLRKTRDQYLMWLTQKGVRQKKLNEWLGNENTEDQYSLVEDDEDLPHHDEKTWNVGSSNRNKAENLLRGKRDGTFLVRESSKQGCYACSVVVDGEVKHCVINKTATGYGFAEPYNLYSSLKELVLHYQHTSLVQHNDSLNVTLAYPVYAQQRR
State just the number; it will be interpreted in µM.

- SMILES RECORD: "Nc1ccc(-c2cc3ncccc3c(N3CCOCC3)n2)c(Cl)c1"
  UNIT LABEL: "µM"
  IC50: 3.7

--- query ---
# input molecule: "Nc1ccc(-c2cc3ncccc3c(N3CCOCC3)n2)cc1Cl" ; wanted: its IC50 0.69

---

biological target: PI3K-p110γ (Homo sapiens)
Sequence (P48736 whole entry): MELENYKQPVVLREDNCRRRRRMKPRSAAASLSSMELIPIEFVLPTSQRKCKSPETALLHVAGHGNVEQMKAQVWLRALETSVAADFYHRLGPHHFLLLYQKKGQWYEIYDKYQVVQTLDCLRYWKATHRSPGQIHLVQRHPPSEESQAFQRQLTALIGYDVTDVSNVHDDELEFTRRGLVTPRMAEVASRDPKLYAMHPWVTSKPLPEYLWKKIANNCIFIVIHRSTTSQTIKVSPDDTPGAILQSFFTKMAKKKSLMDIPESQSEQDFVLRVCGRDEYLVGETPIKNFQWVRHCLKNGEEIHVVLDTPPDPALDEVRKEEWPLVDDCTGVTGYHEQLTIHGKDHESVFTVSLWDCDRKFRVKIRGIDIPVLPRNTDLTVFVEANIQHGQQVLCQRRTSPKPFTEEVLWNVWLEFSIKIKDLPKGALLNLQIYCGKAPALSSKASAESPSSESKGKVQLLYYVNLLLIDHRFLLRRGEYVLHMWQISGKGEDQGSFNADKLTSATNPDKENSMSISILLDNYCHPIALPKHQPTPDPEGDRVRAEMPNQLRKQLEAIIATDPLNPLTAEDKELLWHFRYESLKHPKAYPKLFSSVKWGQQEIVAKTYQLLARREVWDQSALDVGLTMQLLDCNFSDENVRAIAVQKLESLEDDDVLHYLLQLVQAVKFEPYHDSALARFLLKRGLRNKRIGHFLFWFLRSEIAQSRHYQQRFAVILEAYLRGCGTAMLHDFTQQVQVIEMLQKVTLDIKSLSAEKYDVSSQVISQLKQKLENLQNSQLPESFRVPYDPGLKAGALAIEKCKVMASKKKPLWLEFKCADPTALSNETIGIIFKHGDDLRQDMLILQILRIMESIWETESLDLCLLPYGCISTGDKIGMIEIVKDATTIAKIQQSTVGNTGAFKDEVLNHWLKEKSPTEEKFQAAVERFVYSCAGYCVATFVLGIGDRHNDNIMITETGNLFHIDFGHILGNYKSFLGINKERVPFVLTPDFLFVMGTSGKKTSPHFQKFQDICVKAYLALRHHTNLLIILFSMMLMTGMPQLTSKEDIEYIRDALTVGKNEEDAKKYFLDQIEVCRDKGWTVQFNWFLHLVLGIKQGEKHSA
pIC50: −log10 of the molar value.
PROPERTY: pIC50

// lookup pIC50 | system=PI3K-p110γ (Homo sapiens) | key= c1cc(-c2cc3ncccc3c(N3CCOCC3)n2)c2cc[nH]c2c1 [G] < 5.00
